Kd overview
- Assayed system: T1, human IFN-ω (human, UniProt P05000 24-195)
- T1 construct: also called interferon omega
- Protocol description: ProteOn, one antigen concentration
Quantity kind: Kd (nM)

INSERT INTO assay_data (binder, units, assay_value) VALUES
  ('IFWM3360 (antibody, V domains shown, VH IFWH624, VL IFWL1048; converted mAb; also called IFWB3095) VH: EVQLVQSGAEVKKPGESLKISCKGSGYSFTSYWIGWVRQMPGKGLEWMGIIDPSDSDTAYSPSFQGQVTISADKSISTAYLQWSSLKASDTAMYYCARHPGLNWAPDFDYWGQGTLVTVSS VL: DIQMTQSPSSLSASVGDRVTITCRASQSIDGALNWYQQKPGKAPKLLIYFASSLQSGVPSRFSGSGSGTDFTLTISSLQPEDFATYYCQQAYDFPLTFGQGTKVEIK', 'nM', 0.025),
  ('IFWM3321 (antibody, V domains shown, VH IFWH591, VL IFWL1048; converted mAb; also called IFWB3056) VH: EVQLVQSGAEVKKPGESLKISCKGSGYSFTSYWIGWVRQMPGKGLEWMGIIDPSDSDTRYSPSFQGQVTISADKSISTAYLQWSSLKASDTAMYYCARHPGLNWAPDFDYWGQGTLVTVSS VL: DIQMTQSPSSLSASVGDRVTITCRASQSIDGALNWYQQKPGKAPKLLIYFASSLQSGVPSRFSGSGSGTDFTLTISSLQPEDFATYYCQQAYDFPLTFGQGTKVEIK', 'nM', 0.033);
